Tested on: blood platelet aggregation induced by ADP
protocol.details: inhibitory activity of blood platelet aggregation induced by ADP in rats
Type: cell-based, rat
test.conditions: relative to PGE1 = 1
endpoint.label: Inhibiting activity of blood platelet aggregation (PGE1 = 1)

These recorded examples may help you get a feel for the data.
>>> result("CCCC[C@H]1CC[C@H]([C@H](O)/C=C/[C@H]2[C@H](O)CC(=O)[C@@H]2CC(=O)CCCCC(=O)O)C1 [(e), reference compound]")
506
>>> result("CCCC[C@H](C)C[C@H](O)/C=C/[C@H]1[C@H](O)CC(=O)[C@@H]1CC(=O)CCCCC(=O)N[C@@H](Cc1ccccc1)C(=O)OC")
0.0053
>>> result("CCCCC(C)C[C@H](O)/C=C/[C@H]1[C@H](O)CC(=O)[C@@H]1CC(=O)CCCCC(=O)O (some centres unmarked) [(d), reference compound]")
68
>>> result("CCCC[C@H]1CC[C@H]([C@H](O)/C=C/[C@H]2[C@H](O)CC(=O)[C@@H]2CC(=O)CCCCC(=O)N[C@@H](Cc2ccccc2)C(=O)O)C1")
0.01

Now, please, on to the next compound.
Incoming: Give me measured Inhibiting activity of blood platelet aggregation (PGE1 = 1), please, for this compound: "CCCC[C@H]1CC[C@H]([C@H](O)/C=C/[C@H]2[C@H](O)CC(=O)[C@@H]2CC(=O)CCCCC(=O)N[C@@H](CC(C)C)C(=O)O)C1"
Outgoing: 0.01
